# run_description: High-throughput drug toxicity screening in the BPDCN cell line Gen2.2 (AID 1224824);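 note: cells exposed to compounds for 48 h before reading; 100% = DMSO and 0% = bortezomib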
# condition_context: Gen2.2 BPDCN cells; at 45.8 µM (top of the series) unless noted
metric_name: cell viability, % of control (lower = more cytotoxic) (%)
The answer is to be given in %; state only the numeric part.

Solved cases (4 shown):
CC(C)(C)c1cc(C(=O)O)c(NC(=O)Nc2ccc3[nH]ncc3c2)s1; 134
CS(=O)(=O)N(Cc1ccco1)CC(O)Cn1c2ccccc2c2ccccc21 (stereo not drawn); 75.4
COc1ccc(C2CC(c3ccccc3)=NN2c2ccc(S(N)(=O)=O)cc2)cc1 (stereo not drawn); 76.6
CC[C@H]1OC(=O)[C@H](C)C(=O)[C@H](C)[C@@H](O[C@H]2O[C@H](C)C[C@H](N(C)C)[C@@H]2O)[C@](C)(OC)C[C@@H](C)C(=O)[C@H](C)[C@H]2N(CCCCn3cnc(-c4cccnc4)c3)C(=O)O[C@]12C; 122

Record summary for `O=C1NC(=O)C(=Cc2ccc3c(c2)OC(F)(F)O3)S1` : reported cell viability, % of control (lower = more cytotoxic) = 54.2

Record summary for C=C1C(=O)[C@@]23C(CC[C@@H]1[C@H]2O)[C@@]12CO[C@]3(O)[C@@H](O)[C@@H]1C(C)(C)CC[C@@H]2O (stereo partly drawn) : reported cell viability, % of control (lower = more cytotoxic) = 2.66

Record summary for `CO[C@H]1C[C@@H]2CC[C@@H](C)[C@@](O)(O2)C(=O)C(=O)N2CCCC[C@@H]2C(=O)O[C@H]([C@H](C)C[C@@H]2CC[C@H](OCCO)[C@H](OC)C2)CC(=O)[C@H](C)C=C(C)[C@@H](O)[C@@H](OC)C(=O)[C@H](C)C[C@H](C)C=CC=CC=C1C` : reported cell viability, % of control (lower = more cytotoxic) = 10.1

Record summary for `CCOC(CN1C(=O)[C@](CC(=O)Nc2ccc(C)cc2)(NC(=O)Nc2ccc(C)cc2)c2ccccc21)OCC` : reported cell viability, % of control (lower = more cytotoxic) = 45.2

###

# Tested on: HeLa
# run_description: Primary qHTS to identify gynecologic anti-cancer compounds using libraries of approved drugs and bioactive compounds (AID 1345084); note: nearly all actives have a fitted effect of over 55% in size; note: potency is the fitted concentration of half-maximal effect
# condition_context: Gynecologic cancer cell panel viability, ATPlite luminescence, 48 h; series mostly up to 57.5 µM
Results filed as inconclusive are left out. Calls of active or inactive are those of the source. Calls follow the shape of the dose curve; as a rule, active = well fitted cell-killing curve with a large enough effect; inconclusive = small, poorly fitted or top-dose-only effect, or effect the other way; inactive = flat fitted curve, though single readings scatter.
metric_name: Potency

Solved cases (8 shown):
CC1CCC(C(=O)N(c2cc(C#CC(C)(C)C)sc2C(=O)O)C2CCC(O)CC2)CC1 (configuration not stated); inactive
COc1cc2nc(-c3ccc(N4CCN(C)CC4)cc3)nc(NCCN3CCOCC3)c2cc1OC; inactive
COC(=O)[C@@H]1[C@H]2C[C@H]3c4[nH]c5ccccc5c4CCN3C[C@@H]2CC[C@@H]1O; inactive
CC1(C)CCC(CN2CCN(c3ccc(C(=O)NS(=O)(=O)c4ccc(NCC5CCOCC5)c([N+](=O)[O-])c4)c(Oc4cnc5[nH]ccc5c4)c3)CC2)=C(c2ccc(Cl)cc2)C1; inactive
NCCS; inactive
NC(=O)c1cnc(-c2ccc(C3(N)CCC3)cc2)c(-c2ccccc2)c1; inactive
CN(C)c1cc(NC(=O)CNC(C)(C)C)c(O)c2c1C[C@@H]1C[C@H]3[C@H](N(C)C)C(=O)C(C(N)=O)=C(O)[C@@]3(O)C(=O)C1=C2O; inactive
Cc1ccccc1C(C(=O)NC1CCCCC1)N(C(=O)Cn1ccnc1C)c1cccc(F)c1 (configuration not stated); inactive

Record summary for `CCS(=O)(=O)N1CC(CC#N)(n2cc(-c3ncnc4[nH]ccc34)cn2)C1` : reported Potency = inactive

Record summary for `CN1C[C@H]2c3ccccc3Oc3ccc(Cl)cc3[C@@H]2C1` : reported Potency = inactive

Record summary for `COc1cc(N2CCC(N3CCN(C)CC3)CC2)ccc1Nc1ncnc(Nc2ccccc2S(=O)(=O)C(C)C)n1` : reported Potency = 10 µM (active)

Record summary for `Cn1c(N2CCCCS2(=O)=O)nc(C(=O)NCc2ccc(F)cc2)c(O)c1=O` : reported Potency = inactive

###

# run_description: Cell Viability - HUV-EC-C (AID 542);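 note: cells exposed to compound for 40 hours; nearly all actives have a fitted effect of over 35% in size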
# condition_context: HUV-EC-C endothelial cell viability, qHTS; series mostly up to 92.2 µM
Results filed as inconclusive are left out. Active and inactive are the calls of the source. Calls follow the shape of the dose curve; as a rule, active = well fitted cell-killing curve with a large enough effect; inconclusive = small, poorly fitted or top-dose-only effect, or effect the other way; inactive = flat fitted curve, though single readings scatter.
// allowed return values: y = active, n = inactive

Please review the following examples before continuing.
O=c1c(-c2ccc(O)cc2)coc2cc(O)ccc12; n
O=c1cc(-c2ccc(O)cc2)oc2cc(O)cc(O)c12; n
O=C(O)Cc1cccc2ccccc12; n
O=C1NC(=O)C(c2ccccc2)(c2ccccc2)N1; n

### Prompt Please share the test call associated with `CC(=O)c1ccc(S(=O)(=O)NC(=O)NC2CCCCC2)cc1` .
### Response n

### Prompt Please share the test call associated with CN(C)CCC(c1ccccc1)c1ccccn1 (centres undefined) .
### Response n

### Prompt Please share the test call associated with `CC1=C(/C=C/C(C)=C/C=C/C(C)=C/C(=O)Nc2ccc(O)cc2)C(C)(C)CCC1` .
### Response y

### Prompt Please share the test call associated with `CC/C(=C(\c1ccccc1)c1ccc(OCCN(C)C)cc1)c1ccccc1` .
### Response y

### Prompt Please share the test call associated with `O=C(O)c1cc(O)c2c(c1)C(=O)c1cccc(O)c1C2=O` .
### Response n

###

# run_description: qHTS of pediatric cancer cell lines to identify multiple opportunities for drug repurposing: Primary screen for OHS-50 cells (AID 1347103); note: nearly all actives have a fitted effect of over 40% in size
# condition_context: OHS-50 osteosarcoma viability, CellTiter-Glo luminescence, 48 h; series mostly up to 57.3 µM
# Experimental: Drug repurposing or repositioning has been offered as a strategy for drug development in oncology programs. […] [1] Shen, M et al. Quantitative high-throughput phenotypic screening of pediatric cancer cell lines identifies multiple opportunities for drug repurposing. […] Cells were assayed in growth media at a density of 500-1,000 cells/well. […] After a 15 min incubation at room temperature, samples were analyzed for luminescence intensity using a ViewLux High-throughput CCD imager equipped with clear filters.
Inconclusive results are not listed. Calls of active or inactive are those of the source. Calls follow the shape of the dose curve; as a rule, active = well fitted cell-killing curve with a large enough effect; inconclusive = small, poorly fitted or top-dose-only effect; inactive = no such curve, though single readings can be large or run the other way.
// allowed return values: yes (1) for active, no (0) for inactive

Please review the following examples before continuing.
C[C@@H](O)[C@H]1C(=O)N2C(C(=O)O)=C(S[C@@H]3CN[C@H](C(=O)N(C)C)C3)[C@H](C)[C@H]12; no (0)
O=C(NC1CCOCC1)c1ccc(-c2cc(-c3cn[nH]c3-c3ccccn3)ccn2)cc1; no (0)
CCC(=O)NC[C@H](Cc1ccc(OCCc2nc(-c3ccccc3)oc2C)cc1)NC(C)=CC(=O)c1ccc(C(F)(F)F)cc1; yes (1)
C[C@H](NC(=O)C(=O)Nc1ccccc1C(C)(C)C)C(=O)N[C@@H](CC(=O)O)C(=O)COc1c(F)c(F)cc(F)c1F; no (0)
Nc1ncnc2ccccc12; no (0)
O=c1[nH]cnc2c1ncn2[C@H]1CC[C@@H](CO)O1; no (0)
CNC(=O)c1ccccc1Sc1ccc2c(C=Cc3ccccn3)n[nH]c2c1; yes (1)
COc1ncc(-c2ccc3nccc(-c4ccnnc4)c3c2)cc1NS(=O)(=O)c1ccc(F)cc1F; yes (1)
CC[C@@]1(O)C[C@H](O[C@H]2C[C@H](N(C)C)[C@H](O[C@H]3C[C@H](O)[C@H](O[C@H]4CCC(=O)[C@H](C)O4)[C@H](C)O3)[C@H](C)O2)c2c(cc3c(c2O)C(=O)c2c(O)cccc2C3=O)[C@@H]1C(=O)OC; no (0)
Cc1cccc(C)c1OCC(C)N (centres undefined); no (0)

### Prompt Please share the test call associated with `Cc1cccc(Nc2nc(-c3ccncc3)cs2)c1` .
### Response yes (1)

### Prompt Please share the test call associated with `O=C1C(Cl)=C(NCCN2CCOCC2)C(=O)c2ncccc21` .
### Response yes (1)

### Prompt Please share the test call associated with `Cc1ccc(F)c(NC(=O)Nc2ccc(-c3cccc4[nH]nc(N)c34)cc2)c1` .
### Response yes (1)

### Prompt Please share the test call associated with `O=C(O)CCc1nc(-c2ccccc2)c(-c2ccccc2)o1` .
### Response no (0)

### Prompt Please share the test call associated with COc1ccc2c3c1OC1C[C@@H](O)C=C[C@@]31CCN(C)C2 (some centres undefined) .
### Response no (0)

### Prompt Please share the test call associated with `CC(=O)O[C@]1(C(C)=O)CC[C@@H]2[C@@H]3C[C@H](C)C4=CC(=O)CC[C@]4(C)[C@H]3CC[C@@]21C` .
### Response yes (1)

### Prompt Please share the test call associated with `O=C(O)c1cc(-c2ccccc2)nc2ccccc12` .
### Response no (0)

### Prompt Please share the test call associated with COc1cccc2c1CCCC2CCCN1CCN(C2CCCCC2)CC1 (centres undefined) .
### Response yes (1)

### Prompt Please share the test call associated with `COc1ccc(-c2nc(N3CCOCC3)c3sc(CN(C)c4ncc(C(=O)NO)cn4)cc3n2)cn1` .
### Response yes (1)
